# Protocol Summary: in vitro
# Assay Context: plasma
Quantity: half-life
Value and unit, in that order.

Kindly note the recorded half-life for CC[C@H](C)[C@H](NC(=O)[C@H](Cc1ccc(O)cc1)NC(=O)[C@@H]1CCCN1C(=O)[C@H](CCCNC(=N)N)NC(=O)[C@@H](N)CCCNC(=N)N)C(=O)N[C@@H](CC(C)C)C(=O)O [NT(8-13), NH2-Arg-Arg-Pro-Tyr-Ile-Leu-COOH] , which is 5 min

* * *

# Tested System: NTR-2 (Rattus norvegicus)
# Assay Context: hotplate 52 C, cutoff 30 sec, IP at 10 mg/kg; 10 mg/kg
Could you please report measured MPE (I.P.) for the items listed next?

Kindly note the recorded MPE (I.P.) for Orn-Arg-Pro-Tyr-t-Leu-Leu [ABS233] , which is 51%

Kindly note the recorded MPE (I.P.) for Arg-Arg-Pro-Tyr-t-Leu-Leu [ABS213] , which is 48%

Kindly note the recorded MPE (I.P.) for 1-Arg-Pro-Tyr-t-Leu-Leu [ABS202] , which is 100%

Kindly note the recorded MPE (I.P.) for Lys-Arg-Pro-Tyr-t-Leu-Leu [ABS205] , which is 86%

Kindly note the recorded MPE (I.P.) for Arg-Arg-Pro-Tyr-t-Leu-Leu [ABS237] , which is 50%

Kindly note the recorded MPE (I.P.) for Orn-Arg-Pro-Tyr-t-Leu-Leu [ABS209] , which is 89%

Kindly note the recorded MPE (I.P.) for Lys-Arg-Pro-Tyr-t-Leu-Leu [ABS229] , which is 48%

* * *

# Protocol Summary: Pharmacokinetics of ABS212 in Sprague-Dawley rats
# Type: in vivo, rat
# Assay Context: Sprague-Dawley, rat, plasma; oral 50 mg/kg
Where a SMILES comes first, the peptide text is derived from it. [ ]: non-standard residue; d: D form. The star is where a group is joined. X2 = C[C@@H](CCC[N+](C)(C)C)C(=O)*; Tle = CC(C)(C)[C@H](N)C(=O)O
Quantity: Cmax (ng/mL)
Give the value in ng/mL but do not write ng/mL after it.

Kindly note the recorded Cmax for CC(C)C[C@H](NC(=O)[C@@H](NC(=O)[C@H](Cc1ccc(O)cc1)NC(=O)[C@@H]1CCCN1C(=O)[C@H](CCCNC(=N)N)NC(=O)[C@@H](C)CCC[N+](C)(C)C)C(C)(C)C)C(=O)O [ABS-212.2HCL] (X2-RPY[Tle]L-OH) , which is 27.1

* * *

# Protocol Summary: Pharmacokinetics of ABS212 in Sprague-Dawley rats
# Format: in vivo, rat
# Assay Context: Sprague-Dawley, rat, plasma; IV bolus 1 mg/kg; read-out: systemic clearance (converted)
Where a SMILES comes first, the peptide text is derived from it. [ ]: non-standard residue; d: D form. The star is where a group is joined. X2 = C[C@@H](CCC[N+](C)(C)C)C(=O)*; Tle = CC(C)(C)[C@H](N)C(=O)O
Quantity: clearance

Kindly note the recorded clearance for CC(C)C[C@H](NC(=O)[C@@H](NC(=O)[C@H](Cc1ccc(O)cc1)NC(=O)[C@@H]1CCCN1C(=O)[C@H](CCCNC(=N)N)NC(=O)[C@@H](C)CCC[N+](C)(C)C)C(C)(C)C)C(=O)O [ABS-212.2HCL] (X2-RPY[Tle]L-OH) , which is 17.8 mL/min/kg

* * *

# Tested System: NTR-1 (Homo sapiens, UniProt P30989)
# Sequence (P30989 whole entry, species assumed): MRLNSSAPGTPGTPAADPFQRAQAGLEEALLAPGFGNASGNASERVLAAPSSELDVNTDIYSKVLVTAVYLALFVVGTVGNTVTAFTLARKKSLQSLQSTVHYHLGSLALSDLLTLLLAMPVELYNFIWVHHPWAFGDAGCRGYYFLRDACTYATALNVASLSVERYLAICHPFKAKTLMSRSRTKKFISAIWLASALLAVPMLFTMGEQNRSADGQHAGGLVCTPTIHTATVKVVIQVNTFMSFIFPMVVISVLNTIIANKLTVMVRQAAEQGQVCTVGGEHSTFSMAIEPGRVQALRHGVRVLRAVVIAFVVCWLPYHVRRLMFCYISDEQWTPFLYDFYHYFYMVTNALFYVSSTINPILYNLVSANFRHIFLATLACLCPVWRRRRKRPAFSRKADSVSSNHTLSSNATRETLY
# Protocol Summary: Competitive NTR-1 binding versus radiolabeled NT[8-13]
# Assay Context: competitive binding, Table 12; read-out: NTR-1
Quantity: pEC50
pEC50 here: minus log base 10 of the concentration, concentration in moles per litre.

Kindly note the recorded pEC50 for X-Arg-Pro-Tyr-isoleu-Leu [ABS19] , which is 8.92

* * *

# Protocol Summary: Pharmacokinetics of ABS212 in Sprague-Dawley rats
# Type: in vivo, rat
# Assay Context: Sprague-Dawley, rat, plasma; IV 2.5 mg/kg; read-out: volume of distribution at terminal phase
Where a SMILES comes first, the peptide text is derived from it. [ ]: non-standard residue; d: D form. The star is where a group is joined. X2 = C[C@@H](CCC[N+](C)(C)C)C(=O)*; Tle = CC(C)(C)[C@H](N)C(=O)O
Quantity: Vd
Value and unit, in that order.

Kindly note the recorded Vd for CC(C)C[C@H](NC(=O)[C@@H](NC(=O)[C@H](Cc1ccc(O)cc1)NC(=O)[C@@H]1CCCN1C(=O)[C@H](CCCNC(=N)N)NC(=O)[C@@H](C)CCC[N+](C)(C)C)C(C)(C)C)C(=O)O [ABS-212.2HCL] (X2-RPY[Tle]L-OH) , which is 0.15 L/kg

* * *

# Protocol Summary: Pharmacokinetics of ABS212 in Sprague-Dawley rats
# Assay type: in vivo, rat
# Assay Context: Sprague-Dawley, rat, plasma; IV bolus 2.5 mg/kg; read-out: systemic clearance (converted)
Where a SMILES comes first, the peptide text is derived from it. [ ]: non-standard residue; d: D form. The star is where a group is joined. X2 = C[C@@H](CCC[N+](C)(C)C)C(=O)*; Tle = CC(C)(C)[C@H](N)C(=O)O
Quantity: clearance
Value and unit, in that order.

Kindly note the recorded clearance for CC(C)C[C@H](NC(=O)[C@@H](NC(=O)[C@H](Cc1ccc(O)cc1)NC(=O)[C@@H]1CCCN1C(=O)[C@H](CCCNC(=N)N)NC(=O)[C@@H](C)CCC[N+](C)(C)C)C(C)(C)C)C(=O)O [ABS-212.2HCL] (X2-RPY[Tle]L-OH) , which is 6.67 mL/min/kg

* * *

# Tested System: NTR-2 (Rattus norvegicus, UniProt Q63384)
# Sequence (Q63384 whole entry): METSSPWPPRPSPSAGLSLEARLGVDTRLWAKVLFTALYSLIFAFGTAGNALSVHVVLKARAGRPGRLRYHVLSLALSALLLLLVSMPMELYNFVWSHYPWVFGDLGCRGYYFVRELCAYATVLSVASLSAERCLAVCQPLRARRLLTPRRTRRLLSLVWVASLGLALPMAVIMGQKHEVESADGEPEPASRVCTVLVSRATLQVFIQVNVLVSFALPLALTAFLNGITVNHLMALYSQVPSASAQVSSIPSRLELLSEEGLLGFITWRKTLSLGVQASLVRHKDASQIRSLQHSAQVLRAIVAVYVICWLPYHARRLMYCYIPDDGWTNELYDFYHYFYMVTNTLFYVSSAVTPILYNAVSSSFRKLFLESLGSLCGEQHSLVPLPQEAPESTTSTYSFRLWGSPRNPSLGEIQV
# Assay Context: IP at 10 mg/kg
Quantity: Tmax (I.P.) of %MPE
Please state the value as a number alone, without comment.

Kindly note the recorded Tmax (I.P.) of %MPE for Arg-Arg-Pro-Tyr-t-Leu-Leu [ABS213] , which is 30

Kindly note the recorded Tmax (I.P.) of %MPE for Arg-Arg-Pro-Tyr-t-Leu-Leu [ABS237] , which is 30

Kindly note the recorded Tmax (I.P.) of %MPE for Boc-Arg-Pro-Tyr-t-Leu-Leu [ABS700] , which is 90

* * *

# Protocol Summary: Pharmacokinetics of ABS212 in Sprague-Dawley rats
# Assay type: in vivo, rat
# Assay Context: Sprague-Dawley, rat, plasma; IV bolus 1 mg/kg; read-out: half-life (T1/2) (converted)
Where a SMILES comes first, the peptide text is derived from it. [ ]: non-standard residue; d: D form. The star is where a group is joined. X2 = C[C@@H](CCC[N+](C)(C)C)C(=O)*; Tle = CC(C)(C)[C@H](N)C(=O)O
Quantity: half-life (min)
Give the value in min but do not write min after it.

Kindly note the recorded half-life for CC(C)C[C@H](NC(=O)[C@@H](NC(=O)[C@H](Cc1ccc(O)cc1)NC(=O)[C@@H]1CCCN1C(=O)[C@H](CCCNC(=N)N)NC(=O)[C@@H](C)CCC[N+](C)(C)C)C(C)(C)C)C(=O)O [ABS-212.2HCL] (X2-RPY[Tle]L-OH) , which is 16.8

* * *

# Protocol Summary: Pharmacokinetics of ABS212 in Sprague-Dawley rats
# Assay type: in vivo, rat
# Assay Context: Sprague-Dawley, rat, plasma; IV bolus 5 mg/kg; read-out: systemic clearance (converted)
Where a SMILES comes first, the peptide text is derived from it. [ ]: non-standard residue; d: D form. The star is where a group is joined. X2 = C[C@@H](CCC[N+](C)(C)C)C(=O)*; Tle = CC(C)(C)[C@H](N)C(=O)O
Quantity: clearance (mL/min/kg)
Give the value in mL/min/kg but do not write mL/min/kg after it.

Kindly note the recorded clearance for CC(C)C[C@H](NC(=O)[C@@H](NC(=O)[C@H](Cc1ccc(O)cc1)NC(=O)[C@@H]1CCCN1C(=O)[C@H](CCCNC(=N)N)NC(=O)[C@@H](C)CCC[N+](C)(C)C)C(C)(C)C)C(=O)O [ABS-212.2HCL] (X2-RPY[Tle]L-OH) , which is 6.67

* * *

# Protocol Summary: Pharmacokinetics of ABS212 in Sprague-Dawley rats
# Assay type: in vivo, rat
# Assay Context: Sprague-Dawley, rat, plasma; oral 50 mg/kg, 1 mg/kg group as IV dose data
Where a SMILES comes first, the peptide text is derived from it. [ ]: non-standard residue; d: D form. The star is where a group is joined. X2 = C[C@@H](CCC[N+](C)(C)C)C(=O)*; Tle = CC(C)(C)[C@H](N)C(=O)O
Quantity: bioavailability (%)
Give the value in % but do not write % after it.

Kindly note the recorded bioavailability for CC(C)C[C@H](NC(=O)[C@@H](NC(=O)[C@H](Cc1ccc(O)cc1)NC(=O)[C@@H]1CCCN1C(=O)[C@H](CCCNC(=N)N)NC(=O)[C@@H](C)CCC[N+](C)(C)C)C(C)(C)C)C(=O)O [ABS-212.2HCL] (X2-RPY[Tle]L-OH) , which is 0.11
